Source of measurements: ChEMBL document CHEMBL5576122

# test: in vitro
# condition-label: human, liver microsomes
experimental-readout: half-life (min)

compound: CN(C)CCCN1c2ccccc2Sc2ccc(Cl)cc21.Cl [CHLORPROMAZINE HYDROCHLORIDE]
experimental-readout: half-life
unit-spec: min
measured: 23.8

----------
# test: in vitro
# condition-label: mouse, liver microsomes

compound: CN(C)CCCN1c2ccccc2Sc2ccc(Cl)cc21.Cl [CHLORPROMAZINE HYDROCHLORIDE]
unit-spec: mL/min/kg
CLint scaled: 724

----------
# test: in vitro
# condition-label: mouse, liver microsomes
# Description: Metabolic stability in mouse liver microsomes assessed as half life

molecule: CN(C)CCCN1c2ccccc2Sc2ccc(Cl)cc21.Cl [CHLORPROMAZINE HYDROCHLORIDE]
half-life, min: 7.6

----------
# target-or-test-system: UniProtKB P05177
# Sequence (P05177 whole entry): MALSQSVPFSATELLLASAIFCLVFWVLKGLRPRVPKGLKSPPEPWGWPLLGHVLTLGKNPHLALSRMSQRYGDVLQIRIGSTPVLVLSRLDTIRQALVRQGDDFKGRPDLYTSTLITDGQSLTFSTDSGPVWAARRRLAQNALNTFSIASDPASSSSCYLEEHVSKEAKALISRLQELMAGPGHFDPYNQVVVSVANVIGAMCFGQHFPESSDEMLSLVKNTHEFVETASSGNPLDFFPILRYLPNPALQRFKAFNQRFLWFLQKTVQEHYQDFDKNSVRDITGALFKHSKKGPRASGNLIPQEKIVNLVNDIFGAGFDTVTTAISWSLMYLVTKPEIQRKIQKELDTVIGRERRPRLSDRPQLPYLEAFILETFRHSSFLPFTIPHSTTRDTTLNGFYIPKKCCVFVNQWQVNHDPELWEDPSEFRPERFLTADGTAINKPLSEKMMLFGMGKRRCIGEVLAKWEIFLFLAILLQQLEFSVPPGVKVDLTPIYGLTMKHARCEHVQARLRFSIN
# test: Inhibition of CYP1A2 (unknown origin) at 10 uM relative to control
# Type: ADME

structure-smiles-string: COc1ccc2c(c1)N(CCCCCN1CCC3(CCN(C)CC3)CC1)c1ncccc1S2
inhibition at 10 µM / %: 0

----------
# target-or-test-system: CYP2C9 (Homo sapiens)
# Sequence (P11712 whole entry): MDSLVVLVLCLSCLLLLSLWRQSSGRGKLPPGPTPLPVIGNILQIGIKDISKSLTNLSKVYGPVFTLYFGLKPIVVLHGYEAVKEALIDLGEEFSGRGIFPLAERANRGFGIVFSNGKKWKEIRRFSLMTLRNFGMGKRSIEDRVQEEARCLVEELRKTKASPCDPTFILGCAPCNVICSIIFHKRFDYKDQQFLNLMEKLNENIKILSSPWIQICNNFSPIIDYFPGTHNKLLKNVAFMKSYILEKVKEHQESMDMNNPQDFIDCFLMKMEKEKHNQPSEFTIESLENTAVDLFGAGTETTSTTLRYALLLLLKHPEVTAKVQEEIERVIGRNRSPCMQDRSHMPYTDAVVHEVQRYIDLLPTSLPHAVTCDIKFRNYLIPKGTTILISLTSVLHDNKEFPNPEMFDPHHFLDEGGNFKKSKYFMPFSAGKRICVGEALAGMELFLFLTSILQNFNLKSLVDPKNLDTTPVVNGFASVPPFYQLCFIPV
# test: Inhibition of CYP2C9 (unknown origin) at 10 uM relative to control
# Format: ADME

structure-smiles-string: COc1ccc2c(c1)N(CCCCCN1CCC3(CCN(C)CC3)CC1)c1ncccc1S2
inhibition at 10 µM (%): 7

----------
# target-or-test-system: CYP2D6 (Homo sapiens)
# Sequence (P10635 whole entry): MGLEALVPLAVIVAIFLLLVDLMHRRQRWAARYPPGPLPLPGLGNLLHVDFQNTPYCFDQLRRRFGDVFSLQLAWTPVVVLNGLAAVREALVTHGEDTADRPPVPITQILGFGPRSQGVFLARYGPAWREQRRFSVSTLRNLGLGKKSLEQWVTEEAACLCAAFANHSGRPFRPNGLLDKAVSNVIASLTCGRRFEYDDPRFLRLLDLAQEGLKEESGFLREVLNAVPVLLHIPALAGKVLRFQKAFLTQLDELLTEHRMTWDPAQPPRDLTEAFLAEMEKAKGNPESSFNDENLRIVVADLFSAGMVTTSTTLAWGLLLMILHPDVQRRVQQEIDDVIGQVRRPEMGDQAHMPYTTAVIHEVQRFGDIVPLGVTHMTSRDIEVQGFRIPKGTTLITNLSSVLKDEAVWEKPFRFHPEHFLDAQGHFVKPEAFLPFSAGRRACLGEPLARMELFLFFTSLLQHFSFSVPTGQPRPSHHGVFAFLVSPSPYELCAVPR
# test: Inhibition of CYP2D6 (unknown origin) at 10 uM relative to control
# Type: ADME
experimental-readout: inhibition at 10 µM (%)

structure-smiles-string: COc1ccc2c(c1)N(CCCCCN1CCC3(CCN(C)CC3)CC1)c1ncccc1S2
measured: 14.8

----------
# test: in vitro
# condition-label: plasma
# Description: Protein binding in plasma (unknown origin)

compound: CN(C)CCCN1c2ccccc2Sc2ccc(Cl)cc21.Cl [CHLORPROMAZINE HYDROCHLORIDE]
fraction unbound: 0.0156

----------
Here, each record is paired with measured IC50 data.
# Test system: KLE
# test: Inhibition of cell proliferation in human KLE cells incubated for 48 hrs by CCK-8 assay

structure-smiles-string: CC(C)(C)OC(=O)N1CCC2(CCN(CCCCCN3c4cc(Cl)ccc4Sc4cccnc43)CC2)CC1
target-or-test-system: KLE
unit-spec: µM
IC50: 9.55
//
structure-smiles-string: CC(C)(C)OC(=O)N1CCC2(CCN(CCCCCN3c4ccccc4Sc4cccnc43)CC2)CC1
target-or-test-system: KLE
unit-spec: µM
IC50: 9.99
//
structure-smiles-string: CC(C)(C)OC(=O)N1CCC2(CC1)CCN2CCCCCN1c2cc(Cl)ccc2Sc2cccnc21
target-or-test-system: KLE
unit-spec: µM
IC50: 6.23
//
structure-smiles-string: Clc1ccc2c(c1)N(CCCCCN1CCC3(CCNCC3)CC1)c1ncccc1S2
target-or-test-system: KLE
unit-spec: µM
IC50: 2.88
//
structure-smiles-string: Clc1ccc(CN2CCC3(CCN(CCCCCN4c5cc(Cl)ccc5Sc5cccnc54)CC3)CC2)cc1
target-or-test-system: KLE
unit-spec: µM
IC50: 3.49
//
structure-smiles-string: CC(C)(C)OC(=O)N1CCC2(CCN(CCCCCN3c4cc(C(F)(F)F)ccc4Sc4cccnc43)CC2)CC1
target-or-test-system: KLE
unit-spec: µM
IC50: 14.5
//
structure-smiles-string: COc1ccc2c(c1)N(CCCCCN1CCC3(CC1)CCN(C(=O)OC(C)(C)C)CC3)c1ncccc1S2
target-or-test-system: KLE
unit-spec: µM
IC50: 8.06
//
structure-smiles-string: CN1CCC2(CC1)CCN(CCCCCN1c3cc(Cl)ccc3Sc3cccnc31)CC2
target-or-test-system: KLE
unit-spec: µM
IC50: 3.17
//
structure-smiles-string: Clc1ccc2c(c1)N(CCCCCN1CCC3(CC1)CCN(Cc1ccccc1)CC3)c1ncccc1S2
target-or-test-system: KLE
unit-spec: µM
IC50: 3.96

----------
# test: in vitro
# condition-label: human, liver microsomes
experimental-readout: CLint scaled (mL/min/kg)

molecule: CN(C)CCCN1c2ccccc2Sc2ccc(Cl)cc21.Cl [CHLORPROMAZINE HYDROCHLORIDE]
unit-spec: mL/min/kg
measured: 52.3

----------
# Test system: KLE
# test: Inhibition of cell proliferation in human KLE cells incubated for 48 hrs by CCK-8 assay
Here, each record is paired with measured IC50 data.
experimental-readout: IC50 (µM)

molecule: CN(C)CCCN1c2ccccc2Sc2ccc(Cl)cc21.Cl [CHLORPROMAZINE HYDROCHLORIDE]
target-or-test-system: KLE
unit-spec: µM
measured: 35
--
molecule: C#CCN1CCC2(CC1)CCN(CCCCCN1c3cc(Cl)ccc3Sc3cccnc31)CC2
target-or-test-system: KLE
unit-spec: µM
measured: 8.31
--
molecule: CCCN1CCC2(CC1)CCN(CCCCCN1c3cc(Cl)ccc3Sc3cccnc31)CC2
target-or-test-system: KLE
unit-spec: µM
measured: 3.53
--
molecule: CC(C)(C)OC(=O)N1CCC2(CCN(CCCCCN3c4cc(Cl)ccc4Sc4cccnc43)CC2)C1
target-or-test-system: KLE
unit-spec: µM
measured: 10.7
--
molecule: CC(C)(C)OC(=O)N1CCCC12CCN(CCCCCN1c3cc(Cl)ccc3Sc3cccnc31)CC2
target-or-test-system: KLE
unit-spec: µM
measured: 8.52

----------
# target-or-test-system: CYP2C19 (Homo sapiens, UniProt P33261)
# Sequence (P33261 whole entry): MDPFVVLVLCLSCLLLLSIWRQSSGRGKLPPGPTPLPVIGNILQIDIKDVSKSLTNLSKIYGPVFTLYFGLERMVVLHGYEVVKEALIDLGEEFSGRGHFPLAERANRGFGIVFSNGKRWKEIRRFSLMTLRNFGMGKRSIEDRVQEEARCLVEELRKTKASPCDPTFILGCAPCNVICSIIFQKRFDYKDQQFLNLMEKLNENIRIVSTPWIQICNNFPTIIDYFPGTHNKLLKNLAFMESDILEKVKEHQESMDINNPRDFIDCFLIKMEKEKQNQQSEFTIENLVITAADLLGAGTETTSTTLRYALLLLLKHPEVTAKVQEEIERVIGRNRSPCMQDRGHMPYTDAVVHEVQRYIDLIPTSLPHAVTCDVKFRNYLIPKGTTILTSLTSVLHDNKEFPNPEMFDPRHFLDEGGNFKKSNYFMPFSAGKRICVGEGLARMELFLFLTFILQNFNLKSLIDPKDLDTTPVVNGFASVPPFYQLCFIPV
# test: Inhibition of CYP2C19 (unknown origin) at 10 uM relative to control
# Type: ADME
experimental-readout: inhibition at 10 µM (%)

structure-smiles-string: COc1ccc2c(c1)N(CCCCCN1CCC3(CCN(C)CC3)CC1)c1ncccc1S2
measured: 7.5
